PROCEDURE_SUMMARY: folding stability dG unfold from chymotrypsin proteolysis; higher = more stable
Classification field: enter 1 for folding stability dG unfold values not below 0.8 kcal/mol, 0 for values below it.

PRIMARY_SEQUENCE: MMTKEEIEKLAEELAKELEKKGYKIVKVEIEEVKPGEVKIKVDGKEITITLKDGRKLRIKVEVKKLPKEELS [r1_31_TrROS_Hall]
ASSIGNED_LABEL: 1

PRIMARY_SEQUENCE: SAGGSAGGSAGGKKIKIKINSPGNAEEVKKLLEPFGLEVDSIKENKNNPNLIIVEVNVESAGGSAGGSAGGS [r10_104_TrMRF]
ASSIGNED_LABEL: 0

PRIMARY_SEQUENCE: SPVTVTITLPNGETITLTFPAGMTAEELKAAVLAELKRLLPPGAKIEVVDIEVTEVVAPGETVTVTVRLTSA [r9_178_TrROS_Hall]
ASSIGNED_LABEL: 1

PRIMARY_SEQUENCE: SAGGSAGGSLDPGEEVKIEITDWHPPNGYYRIKIEFPNGPPIDIWMPPDDPQQMKEQAKDLIKSAGGSAGGS [r20_167_TrROS]
ASSIGNED_LABEL: 0

PRIMARY_SEQUENCE: SAGGSAGGSAGGGPMIYTEETVEEVVKVGEKSIKRTVTTTKVEVPGKPGVVLETKVDWGGSAGGSAGGSAGG [r7_795_JUSTAS]
ASSIGNED_LABEL: 1

PRIMARY_SEQUENCE: SAGMTSVLTLEEVSPEELRAKIDEALATLPEGTIFVLPSEELAEVVKELHPGVPVVVRDEATGRLTEVGSAG [r5_391_JUSTAS]
ASSIGNED_LABEL: 1

PRIMARY_SEQUENCE: SMVKVEIEEENGEKTIRIVNEETGVVVEIKFPEGEEVIEVPSVEELVEELKELGENIEITKIEPLSEEELSA [r9_1102_TrROS_Hall]
ASSIGNED_LABEL: 0

PRIMARY_SEQUENCE: SAGGSAGGSAGGKIENWKITKVETKLHPNGFPYLVIELSNEKKKIRVLIYPNGELKAFEESAGGSAGGSAGG [r7_675_TrMRF]
ASSIGNED_LABEL: 1

PRIMARY_SEQUENCE: SAGGSAGGSAGMKVKSIKKLSKDPKNGKETFEITIPENGEKVTIETEPGKFEEVKKKLLKSAGGSAGGSAGG [r17_111_JUSTAS]
ASSIGNED_LABEL: 0

PRIMARY_SEQUENCE: SAGGKKIRIVMTEEEIKKLAEALAKELNVEVKIVKVEKKTVFDKNGKPVKTYVVVEIEVKKLPPGVKLSAGG [r13_943_TrROS_Hall]
ASSIGNED_LABEL: 1

PRIMARY_SEQUENCE: SAGGAEELAKALADELRKLFPGEEIEVTVELVEVEVEPGQKVTLPDGSTVEVPPGAKVLVLKITVKPSAGGS [r16_357_TrROS_Hall]
ASSIGNED_LABEL: 1

PRIMARY_SEQUENCE: SAGGSAMTVEELKELFPGYPITEITDFQPVDGWYTLSIKYPNNGKKRQINVEGMPPELAKEIMELISAGGSA [r15_830_TrROS]
ASSIGNED_LABEL: 0

PRIMARY_SEQUENCE: SAGGSAKKTYIIKIPVKEIVVKDKKTGKYKPISAEELAKLLEEKTGLKVEIVEVKDGYIVIKVKEKSAGGSA [r15_55_TrROS_Hall]
ASSIGNED_LABEL: 1

PRIMARY_SEQUENCE: SAGGSAGGSMGVTVTSEEDPEVRRVRETIETPSGSVVERDMVLTRPPDGPLLREALSEKVFRPSAGGSAGGS [r12_758_JUSTAS]
ASSIGNED_LABEL: 0

PRIMARY_SEQUENCE: SAGGSAGGSAGGGLVPIPVNAILLDENGVPKGTFDGYPLLKAGIPLEEFAKKYGFKVETSAGGSAGGSAGGS [r10_153_TrMRF]
ASSIGNED_LABEL: 0

PRIMARY_SEQUENCE: SMVIEINEDGTVKVYLPEELKGLSAEEIEELIKKLFGPNVKIEKIEIFEPPPKLTEEEKEELKKLPKEEKSA [r9_1011_TrROS_Hall]
ASSIGNED_LABEL: 1

PRIMARY_SEQUENCE: SAGEEIAKRLAEELKEKGYEVEVKVTVEYDEETGEVTITIEIKVKPKPAPPVKIEKKLEGMSEEEKKALSAG [r5_413_TrROS_Hall]
ASSIGNED_LABEL: 0

PRIMARY_SEQUENCE: SMYTADFILPDEVLKTVPLEGKSVEEALEKVKEIVKQLPPNTPLLVKISYTEVDPKTGTTRTGTITVPLKSA [r9_245_JUSTAS]
ASSIGNED_LABEL: 1

PRIMARY_SEQUENCE: SAGGSAGGSAGMEFEVLEVIPPELLAEGGEITVGLPDGERLLVRVSPDGGVKEVRLLPPESAGGSAGGSAGG [r17_2_TrMRF]
ASSIGNED_LABEL: 0

PRIMARY_SEQUENCE: SAGGTITIELDGVTIEVRVEEKDGTLTLTAKVYNKDTGEVFEIEITITRKEDGSVTITIKITKIEPLPSAGG [r13_1004_TrROS_Hall]
ASSIGNED_LABEL: 1

PRIMARY_SEQUENCE: SAGGSAGGSAGMTYVYPGPDGKEYLAEVDPNIPGAEVTVTPPDTGETVTVPLSQVTEVPPSAGGSAGGSAGG [r11_822_JUSTAS]
ASSIGNED_LABEL: 0

PRIMARY_SEQUENCE: SAGGSAGGSAGTITTPTAEFTVTLDPNGTYTVTYQNTTTTVPVGAPFTLPGGEPLTVVPASAGGSAGGSAGG [r11_147_JUSTAS]
ASSIGNED_LABEL: 1

PRIMARY_SEQUENCE: SAGGSAGGSAMIETSVSLDPKNGLRKVTQNVTPEEYLKLTGGPPIPKENKTTVTLTKTLPVPSAGGSAGGSA [r18_327_JUSTAS]
ASSIGNED_LABEL: 0

PRIMARY_SEQUENCE: SAGGMEPIEIPAKVKITHNGKEQEYPLENVTIWPMPDGMYMIYNPDKGEMFFINPKNGRLMRIEIDDSAGGS [r16_721_TrROS]
ASSIGNED_LABEL: 1

PRIMARY_SEQUENCE: SAGGSAPPPGSTQVIVVEKRDAPPEEAAQEIADEIKEKYPNTSVEVQEEEVPPGEPVVRVTVYIPPSAGGSA [r15_916_JUSTAS]
ASSIGNED_LABEL: 1

PRIMARY_SEQUENCE: SAGGSAGGSAGGFTVTVVEPVDPNDPAFKKLMEERGLPPEEVVATKTLTADSEEEIAALLSAGGSAGGSAGG [r11_83_JUSTAS]
ASSIGNED_LABEL: 0

PRIMARY_SEQUENCE: SAGGSAGGSMKKIKVKIKITDKDGNKKEVEAEIFFDEETGKLYIKLPNGEVKEISLEDIEIVESAGGSAGGS [r12_256_TrROS_Hall]
ASSIGNED_LABEL: 1
